Recorded kon values for a group of binders are listed next.
# target-system: T1, monovalent hVISTA-ECD (human VISTA extracellular domain with His tail) (human, UniProt Q9H7M9 33-193)
# T1 construct: analyte flowed over captured antibody; also called huVISTA-His
# T1 sequence (Q9H7M9 other isoform, or with tags, fused parts or gaps limits assumed): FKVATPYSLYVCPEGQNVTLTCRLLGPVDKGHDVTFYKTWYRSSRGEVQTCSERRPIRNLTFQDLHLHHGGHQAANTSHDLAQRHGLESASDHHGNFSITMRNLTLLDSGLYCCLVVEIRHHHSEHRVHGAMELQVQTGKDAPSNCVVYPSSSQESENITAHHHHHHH
# assay-comment: SPR, pH 7.4

# binder, uom, kon
measured = [
    ("P1-064484 (41F11_VH_L96E) (antibody, V domains shown, Kabat positions; also called P1-064484-1) VH: QVQLVESGGGLVKPGGSLRLSCAASGFTFSDYYMSWIRQAPGKGLEWVSYISNSGSPIYYADSVKGRFTISRDNAKNSLYLQMNSLRAEDTAVYYCARDEPGWYFDLWGRGTLVTVSS VL: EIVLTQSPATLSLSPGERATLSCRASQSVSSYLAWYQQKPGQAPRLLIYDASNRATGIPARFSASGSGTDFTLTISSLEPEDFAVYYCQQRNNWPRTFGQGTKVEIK", "M⁻¹ s⁻¹", 135000),
    ("P1-065316 (41F11_VH_A60H VK A64G) (antibody, V domains shown, Kabat positions; also called P1-065316-1) VH: QVQLVESGGGLVKPGGSLRLSCAASGFTFSDYYMSWIRQAPGKGLEWVSYISNSGSPIYYHDSVKGRFTISRDNAKNSLYLQMNSLRAEDTAVYYCARDLPGWYFDLWGRGTLVTVSS VL: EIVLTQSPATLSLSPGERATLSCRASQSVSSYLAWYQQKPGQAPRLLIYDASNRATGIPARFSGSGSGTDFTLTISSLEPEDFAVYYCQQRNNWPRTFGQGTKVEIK", "M⁻¹ s⁻¹", 242000),
    ("P1-064510 (41F11_Vk_A25E/V29D/A64G/R91T) (antibody, V domains shown, also called P1-064510-1) VH: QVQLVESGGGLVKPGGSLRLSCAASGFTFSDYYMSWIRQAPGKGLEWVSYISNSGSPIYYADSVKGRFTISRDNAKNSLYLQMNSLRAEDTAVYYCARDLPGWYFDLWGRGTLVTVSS VL: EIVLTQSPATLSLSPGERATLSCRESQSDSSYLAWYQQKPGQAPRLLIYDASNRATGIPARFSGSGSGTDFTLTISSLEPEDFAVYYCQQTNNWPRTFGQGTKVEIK", "M⁻¹ s⁻¹", 6220),
]
